# method: qHTS assay to identify small molecule antagonists of the sonic hedgehog signaling (Shh) pathway (AID 1259369); further: nearly all actives have a fitted effect of over 45% in size
# test conditions: NIH/3T3 Gli1-Luc reporter, Shh antagonist, luminescence 24 h; series mostly up to 92.4 µM
# From the text: U.S. Tox21 Program National Center for Advancing Translational Sciences [NCATS] NIH Chemical Genomics Center [NCGC] U.S. Environmental Protection Agency [EPA] National Institutes of Environmental Health Sciences [NIEHS] National Toxicology Program [NTP] U.S. Food and Drug Administration [FDA] Tox21 Assay Overview: The sonic hedgehog (Shh) pathway is essential for normal embryonic development. Dysregulation of the Shh pathway can cause severe developmental defects in organs. […]
Inconclusive results are not listed. Active and inactive are the calls of the source. The call rests on the fitted dose curve.
Outcome codes: active, inactive

* O=C(O)c1c(Cl)cccc1Cl | inactive
* CCCCCCCCCCCCCCCCCC[N+](C)(C)C | active
* C=C(C)C(=O)OCC(O)COc1ccc(C(C)(C)c2ccc(OCC(O)COC(=O)C(=C)C)cc2)cc1 (centres undefined) | active
* CC1=C(C(=O)OC(C)C)C(c2cccc([N+](=O)[O-])c2)C(C(=O)OC2CN(C(c3ccccc3)c3ccccc3)C2)=C(N)N1 (centres undefined) | active
* N#CC1(c2ccc(F)cc2)CCC(=O)CC1 | inactive
* NNC(=O)c1cccc(C(=O)NN)c1 | inactive
* CCCCCCCCOc1ccccc1C(=O)Nc1ccc(C(=O)OCC[N+](C)(CC)CC)cc1 | inactive
* CNC(=O)c1ccccc1 | inactive
* CC(C)c1ccc2c(c1)CC[C@H]1[C@](C)(CN)CCC[C@]21C | active
* CN(C)C(=O)C1(N2CCCCC2)CCN(CC[C@@]2(c3ccc(Cl)c(Cl)c3)CN(C(=O)c3ccccc3)CCO2)CC1 | active
* N=C1N=C(N)c2cc3ccccc3cc21 | active
* Nc1cc(C(F)(F)F)ccc1S | active
* Cc1ccc(-n2nc(C(C)(C)C)cc2NC(=O)Nc2ccc(OCCN3CCOCC3)c3ccccc23)cc1 | inactive
* COc1cccc(N)c1 | inactive
* O=c1[nH]cnc2nc[nH]c12 | inactive
* O=c1c(-c2ccccc2)c1-c1ccccc1 | active
* Cc1c(C)c2c(c(C)c1OC(=O)CCC(=O)O)CC[C@@](C)(CCC[C@H](C)CCC[C@H](C)CCCC(C)C)O2 | inactive
* CCCCCOC(=O)CCCC | inactive
* CCCCCCCCCCCCCCCC(=O)OC[C@H](O)[C@H]1OC(=O)C(O)=C1O | inactive
* Cc1cc(=O)oc2cc(N(C)C)ccc12 | inactive
* CCCCC(CC)CN=C(N)NC(N)=NCCCCCCN=C(N)NC(N)=NCC(CC)CCCC (centres undefined) | active
* Fc1ccc([C@@H]2CCNC[C@H]2COc2ccc3c(c2)OCO3)cc1 | inactive
* Oc1ccc(Cl)cc1Sc1cc(Cl)ccc1O | active
* CN(C)c1ccc(SC#N)cc1 | active

----------
# experimental system: Aryl hydrocarbon receptor (Homo sapiens) (UniProt P35869)
# Sequence (P35869 whole entry, looked up): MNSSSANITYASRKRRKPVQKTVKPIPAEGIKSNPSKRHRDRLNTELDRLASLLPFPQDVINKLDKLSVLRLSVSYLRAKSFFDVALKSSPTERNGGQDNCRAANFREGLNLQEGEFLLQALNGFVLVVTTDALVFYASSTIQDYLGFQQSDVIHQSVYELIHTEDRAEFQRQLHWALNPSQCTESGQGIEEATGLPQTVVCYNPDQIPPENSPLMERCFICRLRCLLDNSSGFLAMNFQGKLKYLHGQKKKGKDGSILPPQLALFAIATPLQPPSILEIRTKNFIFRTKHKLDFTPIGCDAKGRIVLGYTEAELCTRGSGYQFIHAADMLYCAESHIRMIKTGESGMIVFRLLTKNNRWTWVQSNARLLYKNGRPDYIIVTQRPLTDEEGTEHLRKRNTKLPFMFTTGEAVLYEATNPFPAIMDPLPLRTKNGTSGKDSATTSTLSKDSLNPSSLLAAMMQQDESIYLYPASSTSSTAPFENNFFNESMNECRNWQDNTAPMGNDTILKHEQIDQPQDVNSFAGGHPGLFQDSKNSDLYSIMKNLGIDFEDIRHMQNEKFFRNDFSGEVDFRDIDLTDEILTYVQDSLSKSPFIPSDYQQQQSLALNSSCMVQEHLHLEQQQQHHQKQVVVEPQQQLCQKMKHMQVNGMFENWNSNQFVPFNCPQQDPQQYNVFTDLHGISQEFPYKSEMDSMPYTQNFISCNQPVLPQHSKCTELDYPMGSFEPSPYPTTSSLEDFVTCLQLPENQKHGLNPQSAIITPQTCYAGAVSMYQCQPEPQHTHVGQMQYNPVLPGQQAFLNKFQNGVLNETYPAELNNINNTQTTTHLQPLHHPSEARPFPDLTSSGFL
# method: qHTS assay to identify small molecule that activate the aryl hydrocarbon receptor (AhR) signaling pathway (AID 743085); further: nearly all actives have a fitted effect of over 15% in size; further: potency means the concentration at half of the fitted maximal effect;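 on activation: HG2L7.5c1 human HepG2 liver cells with stably integrated DRE-driven firefly reporter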
# test conditions: HepG2 AhR-luc (HG2L7.5c1), luciferase, 24 h; series mostly up to 70.3 µM
Records with an inconclusive call do not appear. Calls of active or inactive are those of the source. The call rests on the fitted dose curve; in most records, active means well fitted activation curve with a large enough effect in the repeat runs; inconclusive means weak or mixed curves; inactive means no such curve, though single readings can be large or run the other way.
test readout: Potency

• Cc1cccc(CN2CCN(C(c3ccccc3)c3ccc(Cl)cc3)CC2)c1 (configuration not stated) = inactive
• CN(C/C=C/C#CC(C)(C)C)Cc1cccc2ccccc12 = inactive
• CCCCCCCCCCCCCCCCCC[N+](C)(C)Cc1ccccc1 = inactive
• O=c1[nH]cnc2nc[nH]c12 = inactive
• CCCCN(CCCC)c1ccc(C(=O)c2ccccc2C(=O)O)c(O)c1 = inactive
• c1ccc(CSCc2ccccc2)cc1 = inactive
• C[C@]12CCC(=O)C=C1CC[C@@H]1[C@@H]2[C@@H](O)C[C@@]2(C)[C@H]1CC[C@]2(O)C(=O)COC(=O)CCC(=O)O = inactive
• CN1CCC(Nc2ncc3ncnc(Nc4ccc(F)c(Cl)c4)c3n2)CC1 = 13.3 µM (active)
• O=C1C=CC(=O)N1c1ccc(Cc2ccc(N3C(=O)C=CC3=O)cc2)cc1 = inactive
• O=C(NOCC1CC1)c1ccc(F)c(F)c1Nc1ccc(I)cc1Cl = inactive
• CCc1cc(Cc2cc(CC)cc(C(C)(C)C)c2O)c(O)c(C(C)(C)C)c1 = inactive
• COCCCC/C(=N\OCCN)c1ccc(C(F)(F)F)cc1 = inactive
• CN(C)C(=O)C1(N2CCCCC2)CCN(CC[C@@]2(c3ccc(Cl)c(Cl)c3)CN(C(=O)c3ccccc3)CCO2)CC1 = inactive
• CO[Si](CCCNc1ccccc1)(OC)OC = inactive
• CC[C@H]1O[C@]2(CC[C@@H]1C)C[C@@H]1C[C@@H](C/C=C(\C)C[C@@H](C)/C=C/C=C3\CO[C@@H]4[C@H](O)C(C)=C[C@@H](C(=O)O1)[C@]34O)O2 = inactive
• CCCCCCCCS(=O)C(C)Cc1ccc2c(c1)OCO2 (configuration not stated) = 27.8 µM (active)
• O=C(NO)C1(NS(=O)(=O)c2ccc(Oc3ccc(F)cc3)cc2)CCOCC1 = inactive
• NC(=O)NS(=O)(=O)c1ccc(N)cc1 = inactive
• CS(=O)(=O)CCNCc1ccc(-c2ccc3ncnc(Nc4ccc(OCc5cccc(F)c5)c(Cl)c4)c3c2)o1 = inactive
• Cc1ccc(-n2nc(C(C)(C)C)cc2NC(=O)Nc2ccc(OCCN3CCOCC3)c3ccccc23)cc1 = 15 µM (active)
• NNc1nc(-c2ccc(N)cc2)cs1 = 12.2 µM (active)
• CSc1cnc(C)cn1 = inactive

----------
# experimental system: Nuclear receptor subfamily 1 group I member 3 (Homo sapiens) (UniProt Q14994)
# Sequence (Q14994 whole entry, looked up): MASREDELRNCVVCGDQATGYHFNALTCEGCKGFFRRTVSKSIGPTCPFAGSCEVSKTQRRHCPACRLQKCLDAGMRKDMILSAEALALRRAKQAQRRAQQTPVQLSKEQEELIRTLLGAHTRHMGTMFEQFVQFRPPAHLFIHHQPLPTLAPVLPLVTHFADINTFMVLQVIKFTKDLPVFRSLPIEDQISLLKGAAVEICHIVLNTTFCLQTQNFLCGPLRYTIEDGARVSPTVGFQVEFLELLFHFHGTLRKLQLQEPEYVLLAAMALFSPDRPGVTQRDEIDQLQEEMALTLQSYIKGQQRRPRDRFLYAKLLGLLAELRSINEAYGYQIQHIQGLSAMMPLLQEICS
# method: qHTS assay to identify small molecule antagonists of the constitutive androstane receptor (CAR) signaling pathway (AID 1224838);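 further: HepG2 cells stably expressing hCAR with CYP2B6 luciferase reporter stimulated by CITCO; nearly all actives have a fitted effect of over 40% in size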
# test conditions: HepG2-CYP2B6-hCAR luciferase, CITCO-stimulated, 24 h; series mostly up to 92.4 µM
Inconclusive results are not listed. The source made the active and inactive calls. Calls follow the shape of the dose curve; as a rule, active = well fitted inhibition curve with a large enough effect in the repeat runs; inconclusive = weak or mixed curves, or effect the other way; inactive = no such curve, though single readings can be large or run the other way.
Possible outcomes: YES for active, NO for inactive

* CN(C)C(=O)C1(N2CCCCC2)CCN(CC[C@@]2(c3ccc(Cl)c(Cl)c3)CN(C(=O)c3ccccc3)CCO2)CC1 | YES
* Nc1ccc2cc(S(=O)(=O)O)cc(O)c2c1N=Nc1ccccc1C(F)(F)F | NO
* Fc1ccc(C(c2ccc(F)cc2)N2CCN(C/C=C/c3ccccc3)CC2)cc1 | NO
* CCCCN1C(=O)[C@@H]([C@H](O)C2CCCCC2)NC(=O)C12CCN(Cc1ccc(Oc3ccc(C(=O)O)cc3)cc1)CC2 | NO

----------
# method: A CellTox Green Cytotoxicity Assay to monitor cytotoxicity in HepG2 cells - 16 hour (AID 1224876); further: nearly all actives have a fitted effect of over 45% in size
# test conditions: CellTox Green fluorescence; series mostly up to 76.8 µM
Results filed as inconclusive are left out. The source made the active and inactive calls. Calls come from the whole dose curve; as a rule, active = well fitted activation curve with a large enough effect in the repeat runs; inconclusive = weak or mixed curves; inactive = flat fitted curve, though single readings scatter.
Outcome codes: active, inactive

* Nc1cc(C(F)(F)F)ccc1S | inactive
* O=[N+]([O-])c1cc([N+](=O)[O-])c2ccc(S(=O)(=O)O)cc2c1O | inactive
* c1cc(C(c2ccc(OCC3CO3)cc2)c2ccc(OCC3CO3)cc2)ccc1OCC1CO1 (configuration not stated) | inactive
* CN1CCN(CCC(=O)N2c3ccccc3Sc3ccc(C(F)(F)F)cc32)CC1 | active
* Cc1onc(-c2c(Cl)cccc2Cl)c1C(=O)N[C@@H]1C(=O)N2[C@@H]1SC(C)(C)[C@@H]2C(=O)O | inactive
* C[C@]12CCC(=O)C=C1CC[C@@H]1[C@@H]2[C@@H](O)C[C@@]2(C)[C@H]1CC[C@]2(O)C(=O)COC(=O)CCC(=O)O | inactive
* NNC(=O)c1cccc(C(=O)NN)c1 | inactive
* CCCCN1C(=O)[C@@H]([C@H](O)C2CCCCC2)NC(=O)C12CCN(Cc1ccc(Oc3ccc(C(=O)O)cc3)cc1)CC2 | inactive
* CC[C@H]1O[C@]2(CC[C@@H]1C)C[C@@H]1C[C@@H](C/C=C(\C)C[C@@H](C)/C=C/C=C3\CO[C@@H]4[C@H](O)C(C)=C[C@@H](C(=O)O1)[C@]34O)O2 | active
* Cc1ccc2oc(CN(Cc3ccccc3)C(=O)Nc3c(F)cc(F)cc3F)c(-c3ccc(Cl)cc3)c2c1 | inactive
* Cc1oc(-c2ccccc2)nc1CCC(=O)c1ccc(CC2SC(=O)NC2=O)cc1 (configuration not stated) | inactive
* Oc1cccc2cc3cccc(O)c3c(O)c12 | inactive
* NC(=O)CC[C@@H]1NC(=O)[C@H](Cc2ccccc2)NC(=O)[C@H](Cc2ccc(O)cc2)NC(=O)CCSSC[C@@H](C(=O)N2CCC[C@H]2C(=O)N[C@@H](CCCN=C(N)N)C(=O)NCC(N)=O)NC(=O)[C@H](CC(N)=O)NC1=O | inactive
* C[C@@H](NCCCc1cccc(C(F)(F)F)c1)c1cccc2ccccc12 | active
* Clc1ccc2nsnc2c1NC1=NCCN1 | inactive
* CCN(Cc1cccnc1)C(=O)c1cccc(Cl)c1[C@]1(C)C(=O)N(Cc2ccc(OC)cc2OC)c2ccc(Cl)cc21 | inactive
* Cc1cccc(N(C)C(=S)Oc2ccc3c(c2)C2CCC3C2)c1 (configuration not stated) | inactive
* CNC(=O)c1ccccc1 | inactive
* CNCc1cc(F)ccc1Oc1ccc(Cl)c(Cl)c1 | active
* O=c1[nH]cnc2nc[nH]c12 | inactive
* CCCCCCCCCCCCc1ccc(O)cc1 | active
* CCOC(=O)/C=C(C)/C=C/C=C(C)/C=C/c1c(C)cc(OC)c(C)c1C | inactive
* OC1(c2ccc(Cl)c(C(F)(F)F)c2)CCN(CCCC(c2ccc(F)cc2)c2ccc(F)cc2)CC1 | active
* CCOc1ccc2nc3cc(N)ccc3c(N)c2c1 | inactive
* CC[C@@]1(O)C(=O)OCc2c1cc1n(c2=O)Cc2c-1nc1ccccc1c2/C=N/OC(C)(C)C | active
* Cc1c(C)c2c(c(C)c1OC(=O)CCC(=O)O)CC[C@@](C)(CCC[C@H](C)CCC[C@H](C)CCCC(C)C)O2 | inactive
* NC(=O)NS(=O)(=O)c1ccc(N)cc1 | inactive
* Cc1cc(N)c(S(=O)(=O)O)cc1Cl | inactive
* CSc1ccc(C(=O)c2[nH]c(=O)[nH]c2C)cc1 | inactive
* CCCCCCCCCCCCCCCC(=O)OC[C@H](O)[C@H]1OC(=O)C(O)=C1O | inactive
* CCCCC(CC)COP(=O)(O)OCC(CC)CCCC (configuration not stated) | inactive
* CCCCN1CCCC[C@H]1C(=O)Nc1c(C)cccc1C | inactive
* COc1cc(/C=C/C(=O)O[C@H]2CC[C@]34C[C@]35CC[C@]3(C)[C@@H]([C@H](C)CCC=C(C)C)CC[C@@]3(C)[C@@H]5CC[C@H]4C2(C)C)ccc1O | inactive
* CCCCCCCCCCCCCCCCCC[N+](C)(C)Cc1ccccc1 | active
* Cc1cc(O)c2ccccc2c1O | active
* C=CC(=O)OCCn1c(=O)n(CCOC(=O)C=C)c(=O)n(CCOC(=O)C=C)c1=O | active
* Clc1ccc2cc3ccccc3cc2c1 | inactive
* CCCC(c1cc(C(C)(C)C)c(O)cc1C)c1cc(C(C)(C)C)c(O)cc1C | active
* COC(=O)c1cc(Cl)ccc1OC | inactive
* Fc1ccc([C@@H]2CCNC[C@H]2COc2ccc3c(c2)OCO3)cc1 | active
* C[n+]1ccn(Cc2ccccc2)c1 | inactive
* C/C=C(\C)C(=O)OCc1ccccc1 | inactive
